Reported CC50 values follow for various compounds
Tested on: MDA-MB-231 triple-negative breast cancer cell line
Experiment Notes: Differential Nuclear Staining
Assay type: cell-based, human
Settings: MDA-MB-231, 72 h exposure, DNS assay

| Smiles Notation | CC50 |
| --- | --- |
| Cc1ccc(-c2nn(-c3ccccc3)cc2C=C2C(=O)Nc3ccc(C)cc32)cc1 | > 20 µM |
| O=C1Nc2ccccc2C1=Cc1cn(-c2ccccc2)nc1-c1ccccc1 | > 1 µM |

###

System: Jurkat acute T cell leukemia cell line
Experiment Notes: Differential Nuclear Staining
Assay type: cell-based, human
Settings: 48 h exposure, DNS assay

| Smiles Notation | Target Desc | Sign Qualifier | CC50, µM |
| --- | --- | --- | --- |
| Cc1ccc(-c2nn(-c3ccccc3)cc2C=C2C(=O)Nc3ccc(C)cc32)cc1 | Jurkat acute T cell leukemia cell line | = | 4.36 |
| O=C1Nc2ccccc2C1=Cc1cn(-c2ccccc2)nc1-c1ccccc1 | Jurkat acute T cell leukemia cell line | > | 1 |

###

Tested on: CEM acute lymphoblastic leukemia cell line
Experiment Notes: Differential Nuclear Staining
Assay type: cell-based, human
Settings: CEM, 48 h exposure, DNS assay
Experimental Readout: CC50 (µM)

| Smiles Notation | Target Desc | Experimental Readout | Sign Qualifier | Number |
| --- | --- | --- | --- | --- |
| O=C1Nc2ccccc2C1=Cc1cn(-c2ccccc2)nc1-c1ccccc1 | CEM acute lymphoblastic leukemia cell line | CC50 | > | 1 |
| Cc1ccc(-c2nn(-c3ccccc3)cc2C=C2C(=O)Nc3ccc(C)cc32)cc1 | CEM acute lymphoblastic leukemia cell line | CC50 | = | 7.14 |

###

System: MDA-MB-231 triple-negative breast cancer cell line
Experiment Notes: Differential Nuclear Staining
Format: cell-based, human
Settings: Homo sapiens, MDA-MB-231, 72 h
Experimental Readout: CC50

| Molecule | Target Desc | Result |
| --- | --- | --- |
| COc1ccc(-c2nn(-c3ccccc3)cc2C=C2C(=O)Nc3ccccc32)cc1 [Compound 6d] | MDA-MB-231 triple-negative breast cancer cell line | > 1 µM |
| O=C1Nc2ccccc2C1=Cc1cn(-c2ccccc2)nc1-c1ccc(Cl)cc1 [Compound 6e] | MDA-MB-231 triple-negative breast cancer cell line | > 20 µM |
| Cc1ccc2c(c1)C(=Cc1cn(-c3ccccc3)nc1-c1ccc(Cl)cc1)C(=O)N2 [Compound 6j] | MDA-MB-231 triple-negative breast cancer cell line | > 20 µM |
| Cc1ccc2c(c1)C(=Cc1cn(-c3ccccc3)nc1-c1cc3ccccc3oc1=O)C(=O)N2 [Compound 6k] | MDA-MB-231 triple-negative breast cancer cell line | > 20 µM |
| O=C1Nc2ccccc2C1=Cc1cn(-c2ccccc2)nc1-c1ccc([N+](=O)[O-])cc1 [Compound 6c] | MDA-MB-231 triple-negative breast cancer cell line | > 20 µM |

###

Experiment Notes: Differential Nuclear Staining
Format: cell-based, human
Settings: human, MCF-10A mammary epithelial cells
Reported CC50 at 72 h values follow for various molecules
Experimental Readout: CC50 at 72 h

| Smiles Notation | Result |
| --- | --- |
| O=C1Nc2ccccc2C1=Cc1cn(-c2ccccc2)nc1-c1ccc(Cl)cc1 | > 20 µM |
| COc1ccc(-c2nn(-c3ccccc3)cc2C=C2C(=O)Nc3ccccc32)cc1 | > 1 µM |
| Cc1ccc2c(c1)C(=Cc1cn(-c3ccccc3)nc1-c1cc3ccccc3oc1=O)C(=O)N2 | > 20 µM |
| Cc1ccc2c(c1)C(=Cc1cn(-c3ccccc3)nc1-c1ccccc1)C(=O)N2 | 13 µM |
| O=C1Nc2ccccc2C1=Cc1cn(-c2ccccc2)nc1-c1cc2ccccc2oc1=O | > 20 µM |
| COc1ccc(-c2nn(-c3ccccc3)cc2C=C2C(=O)Nc3ccc(C)cc32)cc1 | 9.37 µM |
| O=C1Nc2ccccc2C1=Cc1cn(-c2ccccc2)nc1-c1ccc([N+](=O)[O-])cc1 | > 20 µM |
| Cc1ccc2c(c1)C(=Cc1cn(-c3ccccc3)nc1-c1ccc(Cl)cc1)C(=O)N2 | 8.59 µM |
| Cc1ccc(-c2nn(-c3ccccc3)cc2C=C2C(=O)Nc3ccccc32)cc1 | > 1 µM |
